I'd appreciate it if you could supply Residual percentage (%) 120 min values for the items below.
- protocol-text: Rat hepatocyte stability experiment
- Format: in vitro ADME
- measurement-conditions: rat hepatocytes, 120 min, average value
One number for each entry, in %.

Example entries and their recorded answers appear below.
[
  {
    "smiles-code": "C[C@@H](Nc1cnc2[nH]nc(/C=C/c3ccccn3)c2c1)c1cc(F)cc(F)c1",
    "measure-unit": "%",
    "result": 0.20
  },
  {
    "smiles-code": "O=S(=O)(Nc1ccc2[nH]nc(/C=C/c3ccccn3)c2c1)c1cc(F)cc(F)c1",
    "measure-unit": "%",
    "result": 58.02
  }
]

Recorded Residual percentage (%) 120 min for C[C@@H](Nc1ccc2[nH]nc(/C=C/c3ccccn3)c2c1)c1cc(F)cc(F)c1 , please?
5.40

###

The listing below reports IC50 for compounds tested on TRKB (Homo sapiens, UniProt Q16620).
Sequence (Q16620 32-822): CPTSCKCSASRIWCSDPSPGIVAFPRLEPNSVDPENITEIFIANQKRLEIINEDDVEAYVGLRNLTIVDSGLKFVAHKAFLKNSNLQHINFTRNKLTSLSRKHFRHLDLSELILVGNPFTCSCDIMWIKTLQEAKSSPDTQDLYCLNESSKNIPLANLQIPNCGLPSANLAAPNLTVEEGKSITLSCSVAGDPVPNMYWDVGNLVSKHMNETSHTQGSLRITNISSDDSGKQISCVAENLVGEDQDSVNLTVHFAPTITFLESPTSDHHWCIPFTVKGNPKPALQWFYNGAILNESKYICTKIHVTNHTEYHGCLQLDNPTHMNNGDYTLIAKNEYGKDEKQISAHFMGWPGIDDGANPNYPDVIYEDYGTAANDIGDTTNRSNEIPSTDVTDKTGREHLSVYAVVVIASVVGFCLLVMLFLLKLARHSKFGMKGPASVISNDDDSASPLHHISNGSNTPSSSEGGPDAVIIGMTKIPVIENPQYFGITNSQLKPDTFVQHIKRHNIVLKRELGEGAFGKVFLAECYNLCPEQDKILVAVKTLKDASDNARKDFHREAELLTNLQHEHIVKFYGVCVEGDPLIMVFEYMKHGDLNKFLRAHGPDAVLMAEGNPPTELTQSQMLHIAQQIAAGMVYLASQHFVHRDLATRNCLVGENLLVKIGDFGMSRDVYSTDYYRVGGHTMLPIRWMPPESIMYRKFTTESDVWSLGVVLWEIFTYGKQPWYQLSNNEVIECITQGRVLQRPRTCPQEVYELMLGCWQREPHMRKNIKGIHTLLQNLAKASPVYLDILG
One number for each entry, in nM.

[
  {
    "smiles-code": "Fc1cccc(Cc2ccc3[nH]nc(C#Cc4ccccn4)c3c2)c1",
    "tgt": "TRKB (Homo sapiens, UniProt Q16620)",
    "result": 82
  },
  {
    "smiles-code": "C(=C\\c1n[nH]c2ccc(Cc3ccccc3)cc12)/c1ccccn1",
    "tgt": "TRKB (Homo sapiens, UniProt Q16620)",
    "result": 15.3
  }
]

I have 2 compounds here; please give me IC50 for each one.
1. CN(c1cc(F)cc(F)c1)c1ccc2[nH]nc(/C=C/c3ccccn3)c2c1
2. C[C@@H](Nc1ccc2[nH]nc(/C=C/C(=O)N3CC[C@H](O)C3)c2c1)c1cc(F)cc(F)c1

1: 25.7; 2: 4.8

###

I'd appreciate it if you could supply pIC50 values for the items below.
- tgt: BaF3-CD74-NTRK1 (Homo sapiens, UniProt P04629)
- Construct: fused on or other part: P04233 (HLA class II histocompatibility antigen gamma chain)
- Sequence (P04629 510-796 limits assumed): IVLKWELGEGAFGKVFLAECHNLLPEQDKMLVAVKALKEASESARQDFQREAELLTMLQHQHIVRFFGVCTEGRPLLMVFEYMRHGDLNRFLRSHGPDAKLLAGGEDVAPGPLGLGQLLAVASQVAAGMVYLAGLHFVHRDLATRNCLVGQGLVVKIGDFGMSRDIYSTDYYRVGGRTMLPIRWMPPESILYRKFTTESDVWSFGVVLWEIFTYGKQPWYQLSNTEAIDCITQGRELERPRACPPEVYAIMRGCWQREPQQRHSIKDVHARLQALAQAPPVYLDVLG
- protocol-text: Cell proliferation inhibition (CCK-8), BaF3-CD74-NTRK1 stable strain
- measurement-conditions: BaF3-CD74-NTRK1, 72 hours
Answers are plain numbers, as −log10 of the molar value.

Example entries and their recorded answers appear below.
[
  {
    "compound": "Fc1ccc(F)c(Cc2ccc3[nH]nc(/C=C/c4ccccn4)c3c2)c1",
    "pIC50": 6.26
  },
  {
    "compound": "COc1cc(F)cc(Cc2ccc3[nH]nc(/C=C/c4ccccn4)c3c2)c1",
    "pIC50": 6.69
  },
  {
    "compound": "COc1cccc(Cc2ccc3[nH]nc(/C=C/c4ccccn4)c3c2)c1 [DYX-135X]",
    "pIC50": 5.52
  },
  {
    "compound": "Fc1cc(F)cc(Cc2ccc3[nH]nc(/C=C/c4ccccc4C(F)(F)F)c3c2)c1",
    "pIC50": 7.89
  },
  {
    "compound": "Cn1cc(/C=C/c2n[nH]c3ccc(NS(=O)(=O)c4cc(F)cc(F)c4)cc23)cn1",
    "pIC50": 7.04
  },
  {
    "compound": "Fc1cc(F)cc(Cc2ccc3[nH]nc(/C=C/c4cccnc4)c3c2)c1",
    "pIC50": 6.90
  }
]

I have 2 compounds here; please give me pIC50 for each one.
1. Fc1cc(F)cc(COc2ccc3[nH]nc(/C=C/c4ccccn4)c3c2)c1
2. Fc1cc(F)cc(Sc2ccc3[nH]nc(/C=C/c4ccccn4)c3c2)c1

[6.81, 6.32]

Values from patent US20220281821A1
